Listing: composite z-score of selected compounds
- Tested on: Human papillomavirus type 1a protein E7 (residues 44-93)
- PROTOCOL: HPV1a E7 fragment binders on microarrays, primary screen, biochemical, small-molecule microarray, residues 44-93, 635 nm fluorescence (AID 1108);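 note: E7 fragment applied at 1 µg/mL in TBST for 1 h at 4 C; score combines spot fluorescence with its signal to noise ratio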
- ASSAY CONTEXT: small-molecule microarray binding, fluorescence 635 nm; higher = more signal
Answer as a number with no unit attached.

Some compounds with recorded composite z-score:
- COMPOUND: "CCOC(=O)[C@H](CC(C)C)NC(=O)CCC1CC(OC(=O)NCc2cccc3ccccc23)CC2(CCCC(COC(=O)NCCOc3ccccc3)O2)O1 (stereo not given in full)"
  TARGET SYSTEM: "Human papillomavirus type 1a protein E7 (residues 44-93)"
  composite z-score: 1.32
- COMPOUND: "CCCNC(=O)OC[C@H]1O[C@H](CCON=Cc2ccc(C(=O)N3[C@H](c4ccc(C)cc4)[C@@H](C)CC[C@H]3C(=O)OC)cc2)C=C[C@@H]1Oc1ccc(OC)cc1"
  TARGET SYSTEM: "Human papillomavirus type 1a protein E7 (residues 44-93)"
  composite z-score: 0.993
- COMPOUND: "CCCNC(=O)OC[C@H]1O[C@H](CCON=C(C)CCN2CCc3nc(CC)c(CC)cc3C2)C=C[C@@H]1Oc1ccc(OC)cc1"
  TARGET SYSTEM: "Human papillomavirus type 1a protein E7 (residues 44-93)"
  composite z-score: -0.263
- COMPOUND: "COc1ccc(O[C@H]2C=C[C@@H](c3ccccc3)O[C@@H]2COC(=O)CCC(C)=NO[C@@H]2O[C@H](COC(C)=O)[C@@H](OC(C)=O)[C@H](OC(C)=O)[C@H]2OC(C)=O)cc1"
  TARGET SYSTEM: "Human papillomavirus type 1a protein E7 (residues 44-93)"
  composite z-score: 1.29
- COMPOUND: "CCOC(=O)[C@H](Cc1ccccc1)NC(=O)CCC1CC(OC(=O)NCCc2ccc(F)cc2)CC2(CCCC(COC(=O)NCCc3ccccc3OC)O2)O1 (stereo not given in full)"
  TARGET SYSTEM: "Human papillomavirus type 1a protein E7 (residues 44-93)"
  composite z-score: 1.37
- COMPOUND: "CC(C)=CCCC(C)=CCON=C1C[C@@H](O)[C@@H](O)[C@@H]2[C@@H]3C(=O)N(Cc4ccccc4)C(=O)[C@@H]3CC[C@H]12"
  TARGET SYSTEM: "Human papillomavirus type 1a protein E7 (residues 44-93)"
  composite z-score: 0.759
- COMPOUND: "CC[C@@H](c1ccccc1)n1c(=O)n2n(c1=O)[C@H]1[C@H](O)[C@@H]3O[C@@H]3C(=NOC[C@@H](O)COCc3ccco3)[C@H]1CC2"
  TARGET SYSTEM: "Human papillomavirus type 1a protein E7 (residues 44-93)"
  composite z-score: -0.629
- COMPOUND: "CON=CC[C@@H]1C=C[C@H](OC(C)=O)[C@@H](COC(C)=O)O1"
  TARGET SYSTEM: "Human papillomavirus type 1a protein E7 (residues 44-93)"
  composite z-score: -0.0635
- COMPOUND: "COc1ccc(O[C@H]2C=C[C@@H](c3ccccc3)O[C@@H]2CON=CC[C@@H]2C=C[C@H](OC(C)=O)[C@@H](COC(C)=O)O2)cc1"
  TARGET SYSTEM: "Human papillomavirus type 1a protein E7 (residues 44-93)"
  composite z-score: -0.332
- COMPOUND: "CCOC(=O)CCN1C(=O)[C@H]2[C@H]3[C@H](O)[C@H](O)CC(=NOCc4ccccc4)[C@H]3CC[C@H]2C1=O"
  TARGET SYSTEM: "Human papillomavirus type 1a protein E7 (residues 44-93)"
  composite z-score: -0.207

## Task Please give the measured composite z-score for this compound: COC(=O)[C@H](C)NC(=O)CCC1CC(OC(=O)NCCc2ccc(F)cc2)CC2(CCCC(COC(=O)NCc3cccc(C(F)(F)F)c3)O2)O1 (stereo not given in full)
## Result 0.518

## Task Given CO[C@@H]1COC(=O)CC=C[C@H](C)[C@H](OC)COC(=O)[C@H](C)NC(=O)CC=C[C@H]1C , state its recorded composite z-score.
## Result -0.724

## Task Which composite z-score reading was recorded for the compound CO[C@@H]1COC(=O)[C@@H]2CCCN2C(=O)[C@@H](C)COC(=O)CC=C[C@H]1C ?
## Result 1.04

## Task Fill in: composite z-score of COc1ccc(COC(=O)NN=C2C[C@@H](O)[C@@H](O)[C@@H]3[C@@H]4C(=O)N(c5cccc(Oc6ccccc6)c5)C(=O)[C@@H]4CC[C@@H]23)cc1 is ___
## Result -0.203

## Task Form field: reported composite z-score of CO[C@H]1COC(=O)CC=C[C@@H](C)[C@H](OC)COC(=O)[C@@H]2CCCN2C(=O)CC=C[C@@H]1C
## Result -0.298

## Task May I ask what composite z-score has been recorded for CCCCC#C[C@@H]1C=C[C@H](Oc2cc(OC)c(OC)c(OC)c2)[C@@H](COC(=O)OCC)O1 ?
## Result -0.709

## Task Item C[C@@H](c1ccccc1)N1C(=O)[C@H]2[C@H]3[C@H](O)[C@H](O)CC(=NO[C@@H]4O[C@H](CO)[C@@H](O)[C@H](O)[C@H]4O)[C@H]3CC[C@H]2C1=O has what recorded composite z-score?
## Result 0.668

## Task Sample CCOC(=O)[C@H](CC(C)C)NC(=O)CCC1CC(OC(=O)NCCc2ccc(F)cc2)CC2(CCCC(COC(=O)NCCOc3ccccc3)O2)O1 (stereo not given in full) — what was its composite z-score?
## Result 1.36

## Task Given the compound CON=Cc1ccc(C(=O)N2[C@H](c3ccc(C)cc3)[C@@H](C)CC[C@H]2C(=O)OC)cc1 , what is its reported composite z-score?
## Result 1.25

## Task // query composite z-score value for entry COC(=O)CC=C[C@@H](C)[C@@H](C=NO[C@H](C)c1cn([C@H](CO)Cc2ccccc2)nn1)NS(=O)(=O)c1ccc(C)cc1
## Result 0.37
